Tested on: SW 1271 complex spheroids, viability
experiment: Anticancer human tumor SW 1271 cell line growth inhibition [LSD1];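 note: spheroids exposed to agents for 7 days before luminescence read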
conditionsUsed: curve of first compound; second compound 10 µM
Text: Multicellular complex tumor spheroid response to LSD1 Inhibitor Iadademstat in combination with a variety of drugs and investigational agents in selected tumor cell lines The current study was undertaken to assess response to LSD1 inhibitors in combination with standard-of-care drugs and investigational agents in solid tumor complex spheroid models as well as in the K-562 leukemia. […] Compounds. […] If the clinical Cmax for an agent had not been determined, the highest concentration tested was 10 microM. […]
recordedMetric: IC50

# compound, recordedMetric, measurement
records = [
    ("Nc1ncn(C2CC(O)C(CO)S2)c(=O)n1 (stereo not drawn) + NC1CCC(NC2CC2c2ccccc2)CC1", "IC50", "> 0.3 µM"),
    ("CC(C)c1c(-c2ccccc2)nc2c(C#N)c[nH]n2c1=O + NC1CCC(NC2CC2c2ccccc2)CC1", "IC50", "> 10 µM"),
    ("CCN(c1cc(-c2ccc(CN3CCOCC3)cc2)cc(C(=O)NCc2c(C)cc(C)[nH]c2=O)c1C)C1CCOCC1 + NC1CC1c1ccc(-c2cccc(O)c2)cc1", "IC50", "> 3 µM"),
]

* * *

log10(IC50) values, listed per item
Tested on: SW 1271 complex spheroids, viability
experiment: Anticancer human tumor SW 1271 cell line growth inhibition [LSD1];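 note: spheroids exposed to agents for 7 days before luminescence read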
conditionsUsed: curve of first compound; second compound 10 µM
recordedMetric: log10(IC50) (log10 of the value in µM)

# compound, log10(IC50)
data = [
    ("COc1ccc([C@@H](O)c2cc(-c3ncnc4cc(N5CCOCC5)ccc34)c(F)cc2Cl)nn1 + NC1CC1c1ccc(-c2cccc(O)c2)cc1", -0.45),
    ("Nc1ccccc1NC(=O)c1ccc(CNC(=O)OCc2cccnc2)cc1 + NC1CCC(NC2CC2c2ccccc2)CC1", -0.83),
    ("O=C(C=Cn1cnc(-c2cc(C(F)(F)F)cc(C(F)(F)F)c2)n1)NNc1cnccn1 + NC1CCC(NC2CC2c2ccccc2)CC1", -0.69),
    ("COc1ccc([C@@H](O)c2cc(-c3ncnc4cc(N5CCOCC5)ccc34)c(F)cc2Cl)nn1 + NC1CCC(NC2CC2c2ccccc2)CC1", -0.36),
    ("COc1cc(Nc2ncc3c(n2)-c2ccc(Cl)cc2C(c2c(F)cccc2OC)=NC3)ccc1C(=O)O + NC1CCC(NC2CC2c2ccccc2)CC1", -0.73),
    ("CC(C)CC(NC(=O)CNC(=O)c1cc(Cl)ccc1Cl)B1OC(=O)CC(CC(=O)O)(C(=O)O)O1 (stereo not drawn) + NC1CCC(NC2CC2c2ccccc2)CC1", -2.28),
]

* * *

Test system: SW 1271 complex spheroids, viability
experiment: Anticancer human tumor SW 1271 cell line growth inhibition [LSD1]; active = viability on the fitted dose curve at most 10% of control; inactive = the rest;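 note: spheroids exposed to agents for 7 days before luminescence read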
conditionsUsed: second compound 10 µM; first compound 0.0316 µM
Possible outcomes: active, inactive

# compound, className
measured = [
    ("CC(C)CC(NC(=O)CNC(=O)c1cc(Cl)ccc1Cl)B1OC(=O)CC(CC(=O)O)(C(=O)O)O1 (configuration not stated) + NC1CC1c1ccc(-c2cccc(O)c2)cc1", "active"),
    ("CC(C)CC(NC(=O)C(Cc1ccccc1)NC(=O)c1cnccn1)B(O)O (configuration not stated) + NC1CC1c1ccc(-c2cccc(O)c2)cc1", "active"),
    ("O=C(C=Cn1cnc(-c2cc(C(F)(F)F)cc(C(F)(F)F)c2)n1)NNc1cnccn1 + NC1CC1c1ccc(-c2cccc(O)c2)cc1", "inactive"),
    ("O=C(c1cc(Cc2n[nH]c(=O)c3ccccc23)ccc1F)N1CCN(C(=O)C2CC2)CC1 + NC1CC1c1ccc(-c2cccc(O)c2)cc1", "inactive"),
    ("Cn1ncnc1C1c2n[nH]c(=O)c3cc(F)cc(c23)NC1c1ccc(F)cc1 (configuration not stated) + NC1CC1c1ccc(-c2cccc(O)c2)cc1", "inactive"),
    ("CC1(C)CCC(CN2CCN(c3ccc(C(=O)NS(=O)(=O)c4ccc(NCC5CCOCC5)c([N+](=O)[O-])c4)c(Oc4cnc5[nH]ccc5c4)c3)CC2)=C(c2ccc(Cl)cc2)C1 + NC1CC1c1ccc(-c2cccc(O)c2)cc1", "inactive"),
    ("CC(C)CC(NC(=O)C(Cc1ccccc1)NC(=O)c1cnccn1)B(O)O (configuration not stated) + NC1CCC(NC2CC2c2ccccc2)CC1", "active"),
]
